test system: RYR paralogs found in zebrafish skeletal muscle; assay: [3H]ryanodine ligand binding assay, adult zebrafish tail muscle microsomes; conditions: maximum [3H]Ry binding response compared to DMSO control; mean ± SEM
Label scheme for Max. response SEM (%): lower than 400% is not fulfilled, 400% and above is fulfilled.

compound	group
Clc1cccc(-c2c(Cl)ccc(Cl)c2Cl)c1Cl [PCB 84]	fulfilled
Clc1ccc(-c2ccc(Cl)cc2Cl)cc1 [PCB 28]	not fulfilled
Clc1ccc(Cl)c(-c2c(Cl)ccc(Cl)c2Cl)c1 [PCB 95, 2,2',3,5',6-pentachlorobiphenyl]	fulfilled
Clc1cc(Cl)c(-c2cc(Cl)c(Cl)cc2Cl)cc1Cl [PCB 153, 2,2',4,4',5,5'-Hexachlorobiphenyl]	not fulfilled

Hello, the source for this data is paper PMC9582434, in case you need it.
